What follows is a collection of IC50 values obtained with E-selectin (Homo sapiens).
Sequence (P16581 whole entry): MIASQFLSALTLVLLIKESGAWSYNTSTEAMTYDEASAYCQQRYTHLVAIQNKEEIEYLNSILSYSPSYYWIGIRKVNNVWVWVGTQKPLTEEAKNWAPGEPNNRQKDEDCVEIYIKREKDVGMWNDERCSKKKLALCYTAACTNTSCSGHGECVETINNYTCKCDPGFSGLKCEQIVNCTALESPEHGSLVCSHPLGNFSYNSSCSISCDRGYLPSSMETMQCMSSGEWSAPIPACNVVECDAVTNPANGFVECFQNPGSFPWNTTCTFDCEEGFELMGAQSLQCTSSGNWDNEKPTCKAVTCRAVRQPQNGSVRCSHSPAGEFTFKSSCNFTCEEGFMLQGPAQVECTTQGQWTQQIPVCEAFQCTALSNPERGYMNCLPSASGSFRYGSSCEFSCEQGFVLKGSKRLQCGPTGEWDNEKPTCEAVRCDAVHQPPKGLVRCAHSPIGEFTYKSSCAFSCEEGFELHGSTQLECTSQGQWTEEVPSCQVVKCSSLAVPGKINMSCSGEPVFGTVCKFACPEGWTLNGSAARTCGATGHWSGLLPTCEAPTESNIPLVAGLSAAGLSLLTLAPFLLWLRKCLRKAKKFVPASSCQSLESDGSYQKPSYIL
Answer format: numeric, µM implied, no suffix.

C[C@@H]1O[C@@H](O[C@@H]2CCCC[C@H]2O[C@@H]2O[C@@H](CO)[C@H](O)[C@H](OCC(=O)O)[C@@H]2O)[C@@H](O)[C@@H](O)[C@@H]1O 500

Moving on to the next compound.
# get_value(readout= IC50, system= E-selectin (Homo sapiens)) for CC(=O)N[C@H]1[C@H]([C@H](O)[C@H](O)CO)O[C@@](O[C@H]2[C@@H](O)[C@@H](CO)O[C@@H](O[C@@H]([C@H](O[C@@H]3O[C@@H](C)[C@@H](O)[C@@H](O)[C@@H]3O)[C@H](C=O)NC(C)=O)[C@H](O)CO)[C@@H]2O)(C(=O)O)C[C@@H]1O 700

Entry source: ChEMBL document CHEMBL1134435
